Each entry below carries its recorded enrichment.
B1: peptide HD2 (from tick evasin EVA4) / CXCL11 (biotinylated, synthetic) (parent)
chain 1: EEDDYTAYAPLTCYFT
chain 2: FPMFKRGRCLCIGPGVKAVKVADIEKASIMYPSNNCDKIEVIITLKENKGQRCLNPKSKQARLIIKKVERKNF

- Variants of: B1
- EXPERIMENTAL_CONTEXT: with CXCL11 (biotinylated, synthetic); scale: log2
Quick one: just the number, no unit, thanks!

Reference set (10 entries):
enrichment for chain 1 EECDYTAYAPLTCYFT [chain 1 D3C] ? -7.03

enrichment for chain 1 EEADYTAYAPLTCYFT [chain 1 D3A] ? -4.17

enrichment for chain 1 EEDDYTAYAPLTCMFT [chain 1 Y14M] ? -6.11

enrichment for chain 1 EEMDYTAYAPLTCYFT [chain 1 D3M] ? -4.98

enrichment for chain 1 EEDDYTAYAPLTCPFT [chain 1 Y14P] ? -5.99

enrichment for chain 1 EEDDYTAYAPLTCKFT [chain 1 Y14K] ? -5.3

enrichment for chain 1 ECDDYTAYAPLTCYFT [chain 1 E2C] ? -7.15

enrichment for chain 1 EEDDYTAYAQLTCYFT [chain 1 P10Q] ? -3.53

enrichment for chain 1 EEDDYTAQAPLTCYFT [chain 1 Y8Q] ? -3.5

enrichment for chain 1 EEDDYTAYAPLGCYFT [chain 1 T12G] ? -7.44

More entries:
enrichment for chain 1 EEDCYTAYAPLTCYFT [chain 1 D4C] ? -6.38

enrichment for chain 1 EEDDYTAYAPLTWYFT [chain 1 C13W] ? -6.78

enrichment for chain 1 EQDDYTAYAPLTCYFT [chain 1 E2Q] ? -2.04

enrichment for chain 1 EEDDPTAYAPLTCYFT [chain 1 Y5P] ? -3.87

enrichment for chain 1 EEDDYTAYAPLTCDFT [chain 1 Y14D] ? -4.67

enrichment for chain 1 EEDDYTAYAPLTDYFT [chain 1 C13D] ? -6.29

enrichment for chain 1 EPDDYTAYAPLTCYFT [chain 1 E2P] ? -4.19

enrichment for chain 1 EEVDYTAYAPLTCYFT [chain 1 D3V] ? -6.48

enrichment for chain 1 EEDDMTAYAPLTCYFT [chain 1 Y5M] ? -4.78

enrichment for chain 1 EEDDYTAYAPLKCYFT [chain 1 T12K] ? -4.72

enrichment for chain 1 EEEDYTAYAPLTCYFT [chain 1 D3E] ? -1.84

enrichment for chain 1 EEDDYTAYAPLTCQFT [chain 1 Y14Q] ? -5.19
